target: human TRPV1 receptor (hTRPV1) (Homo sapiens, UniProt Q8NER1); assay: Capsaicin activation assay (Ca2+ influx, FLIPR); conditions: 0.05 μM capsaicin, 1321N1 cells expressing hTRPV1
Sequence (Q8NER1 whole entry): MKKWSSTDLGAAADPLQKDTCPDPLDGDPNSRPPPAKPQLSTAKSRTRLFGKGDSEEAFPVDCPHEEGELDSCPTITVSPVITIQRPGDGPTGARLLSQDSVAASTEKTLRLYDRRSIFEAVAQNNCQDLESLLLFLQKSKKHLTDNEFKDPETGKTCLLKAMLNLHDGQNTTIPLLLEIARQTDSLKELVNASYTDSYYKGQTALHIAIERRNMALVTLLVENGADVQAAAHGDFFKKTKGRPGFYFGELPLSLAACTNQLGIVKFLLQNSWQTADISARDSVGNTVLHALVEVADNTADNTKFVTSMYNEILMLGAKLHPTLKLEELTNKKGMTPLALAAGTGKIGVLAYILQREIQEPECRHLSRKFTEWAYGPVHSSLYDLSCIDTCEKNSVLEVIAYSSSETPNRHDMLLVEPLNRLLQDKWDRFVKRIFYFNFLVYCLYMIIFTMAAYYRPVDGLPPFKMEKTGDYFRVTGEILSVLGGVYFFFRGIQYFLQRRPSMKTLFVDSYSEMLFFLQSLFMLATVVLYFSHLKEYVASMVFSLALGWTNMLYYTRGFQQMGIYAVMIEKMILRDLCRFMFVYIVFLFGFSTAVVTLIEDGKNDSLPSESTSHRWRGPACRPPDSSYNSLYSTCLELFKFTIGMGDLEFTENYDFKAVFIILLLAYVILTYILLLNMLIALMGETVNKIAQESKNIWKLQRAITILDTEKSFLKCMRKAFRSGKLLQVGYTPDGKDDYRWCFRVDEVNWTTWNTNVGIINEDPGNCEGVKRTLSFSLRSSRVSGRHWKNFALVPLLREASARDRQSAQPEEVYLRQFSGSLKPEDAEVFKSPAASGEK
pIC50: −log10 of the molar value.
measured_endpoint: pIC50

CCC1(CC)C[C@@H](NC(=O)Nc2cccc3c2C[C@H](O)CC3)c2cc(F)ccc2O1; 7.42

a: CCCC1(CCC)C[C@@H](NC(=O)Nc2cccc3c2C[C@H](O)CC3)c2cc(F)ccc2O1
b: Cn1ncc2c(NC(=O)N[C@@H]3CC(C)(C)Oc4cc(OC(F)(F)F)ccc43)cccc21
c: O=C(Nc1cccc2c1C[C@@H](O)CC2)N[C@@H]1CC(CF)(CF)Oc2c(F)cccc21
Give the ascending ranking of the items by reported pIC50. Respond with an ordered listing of the labels, as requested.
c, b, a
(c: 7.28, b: 7.60, a: 8.15)

Data origin: patent US8609692B2
